# measurementDescription: Selectivity index, ratio of CC50 for human MT4 cells to EC50 for HIV1 NL4-3 infected in human MT4 cells
# Assay type: toxicity, cell-based
# particulars: read-out: Ratio CC50/EC50
Reported values of selectivity ratio for individual entries
outcomeMeasure: selectivity ratio

1) Cc1cc(C)cc(S(=O)(=O)c2c(C(=O)NC(C)C(=O)NCCn3c(C)cnc3[N+](=O)[O-])[nH]c3ccc(Cl)cc23)c1 (racemic) = 94200
2) Cc1cc(C)cc(S(=O)(=O)c2c(C(=O)NCC(=O)NCc3ccncc3)[nH]c3ccc(Cl)cc23)c1 = > 245000
3) Cc1cc(C)cc(S(=O)(=O)c2c(C(=O)NC(C)C(=O)NC(C)c3ccncc3)[nH]c3ccc(Cl)cc23)c1 (racemic) = > 36500
4) Cc1cc(C)cc(S(=O)(=O)c2c(C(=O)NCC(=O)NCc3ccccc3F)[nH]c3ccc(Cl)cc23)c1 = > 78900
5) Cc1cc(C)cc(S(=O)(=O)c2c(C(=O)Nc3cc(C#N)ccn3)[nH]c3ccc(Cl)cc23)c1 = > 89600
6) Cc1cc(C)cc(S(=O)(=O)c2c(C(=O)NC(C)C(=O)NCc3ccco3)[nH]c3ccc(Cl)cc23)c1 (racemic) = > 40400
7) Cc1cn([C@H]2C[C@H](N=[N+]=[N-])[C@@H](CO)O2)c(=O)[nH]c1=O = > 8270

* * *

Reported values of Ratio EC50 for individual entries
# System: Human immunodeficiency virus 1
# measurementDescription: Ratio of EC50 for HIV-1 harboring reverse transcriptase Y188L mutant infected in human MT4 cells to EC50 for HIV1 NL4-3 infected in human MT4 cells
# Assay type: functional
outcomeMeasure: Ratio EC50

1) Cc1cn([C@H]2C[C@H](N=[N+]=[N-])[C@@H](CO)O2)c(=O)[nH]c1=O [ZIDOVUDINE] = 8.9
2) Cc1cc(C)cc(S(=O)(=O)c2c(C(=O)NCC(=O)NCc3ccccc3F)[nH]c3ccc(Cl)cc23)c1 = 10258
3) Cc1cc(C)cc(S(=O)(=O)c2c(C(=O)NC(C)C(=O)NC(C)c3ccccc3)[nH]c3ccc(Cl)cc23)c1 (racemic) = 6427
4) Cc1cc(C)cc(S(=O)(=O)c2c(C(=O)NCC(=O)NC(C)c3ccccc3)[nH]c3ccc(Cl)cc23)c1 (racemic) = 2703
5) Cc1cc(C)cc(S(=O)(=O)c2c(C(=O)NC(C)c3ccco3)[nH]c3ccc(Cl)cc23)c1 (racemic) = 500
6) Cc1cc(C)cc(S(=O)(=O)c2c(C(=O)NCc3n[nH]c4ccccc34)[nH]c3ccc(Cl)cc23)c1 = 237

* * *

# targetOrSystem: Human immunodeficiency virus type 1 reverse transcriptase (Human immunodeficiency virus 1, UniProt Q72547, Y181I)
# measurementDescription: Inhibition of HIV1 reverse transcriptase p66 Y181I mutant associated RNA dependent DNA polymerase activity expressed in Escherichia coli assessed as reduction in [3H]dTTP incorporation using poly(rA)/oligo(dT) as template/primer by scintillation counting analysis
outcomeMeasure: IC50

1. Cc1cc(C)cc(S(=O)(=O)c2c(C(=O)N[C@H](C)C(=O)N[C@@H](C)c3ccncc3)[nH]c3ccc(Cl)cc23)c1 = 9.51 µM
2. Cc1cc(C)cc(S(=O)(=O)c2c(C(=O)Nc3ccnc(C#N)c3)[nH]c3ccc(Cl)cc23)c1 = 0.306 µM
3. Cc1cc(C)cc(S(=O)(=O)c2c(C(=O)N[C@@H](C)C(=O)NCc3ccncc3)[nH]c3ccc(Cl)cc23)c1 = 0.87 µM
4. Cc1cc(C)cc(S(=O)(=O)c2c(C(=O)N[C@@H](C)c3ccccc3F)[nH]c3ccc(Cl)cc23)c1 = 17.2 µM
